Give abundance fitness for every item shown.
B1: 1-phosphatidylinositol 4,5-bisphosphate phosphodiesterase gamma-2, residues 772 to 827; numbered along this chain, P16885 (parent)
chain: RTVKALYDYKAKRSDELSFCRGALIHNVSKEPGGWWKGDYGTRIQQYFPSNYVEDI

Variants of: B1
Assay: abundance fitness (aPCA) (normalised: wild type 0, dead -1); higher = more abundant; growth selection in yeast, the domain comes from the species named
Conditions: Homo sapiens
When you answer, write just the number.

The measured abundance fitness associated with RTVKALYDYKAKRSDELSFCRGALIHNVSKEPGGWWKGDYGTRIQQGFPSNYVEDI [Y47G] reads -0.604

Data point: RTVKALYDYKAKRSDELSFCRGALIHNVSKEPGGWWKGDYGTRGQQYFPSNYVEDI [I44G] ; abundance fitness = -0.811

In plain terms, RTVKALYDYKAKRSDELSFCRGALIHNVSKEPGGWWKGDYGTRIQDYFPSNYVEDI [Q46D] has a documented abundance fitness of -0.673

Entry under test: RTVKALYDYKAKRSDELSFCRGALIHNVSKEPGGWWKGVYGTRIQQYFPSNYVEDI [D39V] . Its abundance fitness was -0.882

GET /value?item= RTVKALYDYKAKRSDELSFCRGALIHNTSKEPGGWWKGDYGTRIQQYFPSNYVEDI [V28T] &field=abundance fitness returns -0.486

The recorded abundance fitness for entry RTVKALYDYKAKRSDELSFCRGALIHNVSKEPGGWWKGDYGTRIQQYFPSNYVEII [D55I] equals -0.365

The value of abundance fitness measured for the variant RTVKALFDYKAKRSDELSFCRGALIHNVSKEPGGWWKGDYGTRIQQYFPSNYVEDI [Y7F] turned out to be 0.126

Recorded result, RTVKALYDYKAKRSDELSFCRGALIHNVSKEPDGWWKGDYGTRIQQYFPSNYVEDI [G33D] , abundance fitness: -0.168

Per the record, RTVKALYDYKAKRSDELSFCRGALIHNVSKEPGGWWKGDYGTRIQQDFPSNYVEDI [Y47D] has abundance fitness of -0.763

Value of abundance fitness reported for the variant RTVKALYDYKAKRSDELSFCRGALIHNVSKEPGGWWKGDYGIRIQQYFPSNYVEDI [T42I] is -0.021

Entry RTVKALYDYKAKRSDELSFCRGALIHNVSKEPGGWWKGDYGTRIQQYFPSNYVIDI [E54I] , abundance fitness reported as -0.353

abundance fitness reading for RTVKALYDYKAKRPDELSFCRGALIHNVSKEPGGWWKGDYGTRIQQYFPSNYVEDI [S14P] : -0.439

abundance fitness reported for this variant RTVKALYDYKAKRSDELSFCRGALIHNVSKEPGGWWKGDYGTNIQQYFPSNYVEDI [R43N] : 0.097

abundance fitness in this record for RTVKALYDYKAKRSDELSFCRGALIHNVSKEPGGWAKGDYGTRIQQYFPSNYVEDI [W36A] : -0.214

Consider RTVKALYDYKAKRSDELSFCRGALIHNVSKEPGGWWKGDYGTRIQQYFPSNYVCDI [E54C] . Its measured abundance fitness is -0.197

# abundance fitness of RTVKALYDYKAKRSDELVFCRGALIHNVSKEPGGWWKGDYGTRIQQYFPSNYVEDI [S18V] = -0.914

response.value for RTVKACYDYKAKRSDELSFCRGALIHNVSKEPGGWWKGDYGTRIQQYFPSNYVEDI [L6C] (field: abundance fitness) = -0.406

Documented abundance fitness of RTVKALYDYKAKRSDELSFCRGAYIHNVSKEPGGWWKGDYGTRIQQYFPSNYVEDI [L24Y] : 0.041

Entry under test: RTVKALYDYKAKRSDELSFCRGALIHNVSKEGGGWWKGDYGTRIQQYFPSNYVEDI [P32G] . Its abundance fitness was -0.115

So, RTVWALYDYKAKRSDELSFCRGALIHNVSKEPGGWWKGDYGTRIQQYFPSNYVEDI [K4W] ? Its abundance fitness was -0.375

The variant listed as RTVKALYDYKAKRSDELSFCRGALIHNVSKEPGGWWKGDYGARIQQYFPSNYVEDI [T42A] has a reported abundance fitness of -0.065

The variant listed as RTVKALYDYKAKRSDELSFCRRALIHNVSKEPGGWWKGDYGTRIQQYFPSNYVEDI [G22R] shows abundance fitness equal to -0.775

Data point: RTVKPLYDYKAKRSDELSFCRGALIHNVSKEPGGWWKGDYGTRIQQYFPSNYVEDI [A5P] ; abundance fitness = -0.95

// RTVKALYDYKAKRSDELSFCRGALIHNVSKEPGGWWKGDYGTRIQQYFPSNYVELI [D55L] : abundance fitness value = -0.448

Briefly, abundance fitness measured for RTVKALYDYKAKRSDELSFCRGYLIHNVSKEPGGWWKGDYGTRIQQYFPSNYVEDI [A23Y] : -0.059

Lab note: measured abundance fitness of RTVKALYDYKAKRSDELSFCRGALIHNVSAEPGGWWKGDYGTRIQQYFPSNYVEDI [K30A] was -0.195

Entry RTVKALYDYKAKTSDELSFCRGALIHNVSKEPGGWWKGDYGTRIQQYFPSNYVEDI [R13T] ; abundance fitness = -0.368

The reported value for RTVKALYDYKAKRSDELSFCRGALIHNVSKEPGGWWKGDYGTRIQQYFPSNYVWDI [E54W] in terms of abundance fitness is -0.55

Lookup result for RTVKALYDYKAKRSDELSFCRGALIHNVSKEPGGWWKGDYGTREQQYFPSNYVEDI [I44E] ; measured abundance fitness: -0.133

Per the records, this variant ( RTVKALYDYKAKRSDELSFCRGALIHNVSKEPGGWWKGDYGQRIQQYFPSNYVEDI [T42Q] ) has abundance fitness equal to -0.262

Looking up RTVKALYDYKAKRSDELSFARGALIHNVSKEPGGWWKGDYGTRIQQYFPSNYVEDI [C20A] , I see its abundance fitness listed as 0.004
